- Protocol summary: Stability during storage (60° C., 75% R.H., 6 days), residual rate by thin layer densitometry
- Type: physicochemical
- Measurement conditions: storage at 75% r.h.
Experimental endpoint: remaining at 144 h (%)
Numbers only, in %.

Consider the reported remaining at 144 h for these compounds:
{"Compound": "Cc1ccnc(C[S+]([O-])c2nc3cc(OCC4CC4)ccc3[nH]2)c1 (stereo not shown)", "remaining at 144 h, %": 59}
{"Compound": "COc1c(C)cnc(C[S+]([O-])c2nc3cc(OCC4CC4)ccc3[nH]2)c1C (stereo not shown)", "remaining at 144 h, %": 37}
{"Compound": "Cc1cnc(C[S+]([O-])c2nc3c(OCC4CC4)cccc3[nH]2)c(C)c1C (stereo not shown)", "remaining at 144 h, %": 86}
{"Compound": "COc1cc(C[S+]([O-])c2nc3cc(OCC4CC4)ccc3[nH]2)ncc1C (stereo not shown)", "remaining at 144 h, %": 32}
{"Compound": "Cc1cnc(C[S+]([O-])c2nc3c(OCC4CC4)cccc3[nH]2)c(C)c1 (stereo not shown)", "remaining at 144 h, %": 88}

For every item in the list below, what is its measured remaining at 144 h?
1. COc1ccc2[nH]c([S+]([O-])Cc3ncc(C)c(OC)c3C)nc2c1 (stereo not shown) [Omeprazole, reference compound]
2. Cc1cnc(C[S+]([O-])c2nc3cc(OCC4CC4)ccc3[nH]2)c(C)c1C (stereo not shown)
3. Cc1cnc(C[S+]([O-])c2nc3cc(OCC4CC4)ccc3[nH]2)c(C)c1 (stereo not shown)

Solution:
5
94
91

Items follow; give remaining at 144 h for each.
1. COc1cc(C[S+]([O-])c2nc3c(OCC4CC4)cccc3[nH]2)ncc1C (stereo not shown)
2. COc1c(C)cnc(C[S+]([O-])c2nc3c(OCC4CC4)cccc3[nH]2)c1C (stereo not shown)

Solution:
1. 76
2. 67
